- TESTED ON: T1, CRBN, Q96SW2;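 note: pooled lentiviral library of zinc finger degron-EGFP fusions in mCherry-positive Jurkat cells, FACS-sorted after compound exposure, with degron abundance counted by next-generation sequencing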
- T1 chain: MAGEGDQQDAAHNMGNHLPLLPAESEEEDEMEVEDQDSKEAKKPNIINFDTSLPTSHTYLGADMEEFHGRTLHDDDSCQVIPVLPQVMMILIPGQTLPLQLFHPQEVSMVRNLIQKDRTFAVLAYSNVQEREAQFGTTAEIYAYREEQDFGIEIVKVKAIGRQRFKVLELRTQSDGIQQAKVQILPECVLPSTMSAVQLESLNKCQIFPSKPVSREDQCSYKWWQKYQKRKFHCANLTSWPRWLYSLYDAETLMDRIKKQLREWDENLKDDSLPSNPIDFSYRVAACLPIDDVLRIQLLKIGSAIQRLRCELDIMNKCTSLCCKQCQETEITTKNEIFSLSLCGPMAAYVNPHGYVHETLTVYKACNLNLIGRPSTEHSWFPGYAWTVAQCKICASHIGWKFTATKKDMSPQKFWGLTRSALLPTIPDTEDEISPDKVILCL
- TEST: log2 fold change of degron read counts, EGFP-low vs EGFP+ sorted cells (limma voom), compound-induced degradation; higher = more compound-induced degradation of the degron-EGFP fusion; degrons are variants of IKZF1/3 zinc finger 2; compound dose not given here
- STATED CONDITIONS: Jurkat; 18 h; compound: compound 33 (diphenyl IMiD analogue)
Whole data set: some 8,300 sequences, median “log2 fold change of degron read counts, EGFP-low vs EGFP+ sorted cells (limma voom), compound-induced degradation” near -1.1, cut for the highest 2% near 3.2. This excerpt belongs to a sample that is enriched for the highest values.

SEQUENCE INPUT	log2 fold change of degron read counts
FHCNQCGACFTQKGNLLRHIKL [46F_47H_49N_50Q_52G_53A_54C_55F_67L_, Q9UKT9]	-1.86
LNCNQCGFHCTQKGNLLRHIKL [46L_47N_49N_50Q_52G_53F_54H_55C_67L_, Q9UKT9]	-1.68
FYCEICGRTFTQKGNLLRHIKL [46F_47Y_49E_50I_52G_53R_54T_55F_67L_, Q9UKT9]	0.33
FNCEVCGASFTQKGNLLRHIKL [46F_47N_49E_50V_52G_53A_54S_55F_67L_, Q9UKT9]	0.489
FFCEICGRYFTQKGNLLRHIKL [46F_47F_49E_50I_52G_53R_54Y_55F_67L_, Q9UKT9]	-0.864
LMCPICGFQCTQKGNLLRHIKL [46L_47M_49P_50I_52G_53F_54Q_55C_67L_, Q9UKT9]	2.68
FKCEVCGAQFTQKGNLLRHIKL [46F_47K_49E_50V_52G_53A_54Q_55F_67L_, Q9UKT9]	-2.07
LDCPICGFQCTQKGNLLRHIKL [46L_47D_49P_50I_52G_53F_54Q_55C_67L_, Q9UKT9]	0.58
LTCPICGFQCTQKGNLLRHIKL [46L_47T_49P_50I_52G_53F_54Q_55C_67L_, Q9UKT9]	2.25
LYCPICGFQCTQKGNLLRHIKL [46L_47Y_49P_50I_52G_53F_54Q_55C_67L_, Q9UKT9]	2.59
FYCDICGAMFTQKGNLLRHIKL [46F_47Y_49D_50I_52G_53A_54M_55F_67L_, Q9UKT9]	0.476
FHCNQCGHMFTQKGNLLRHIKL [46F_47H_49N_50Q_52G_53H_54M_55F_67L_, Q9UKT9]	-2.58
FWCNVCGASFTQKGNLLRHIKL [46F_47W_49N_50V_52G_53A_54S_55F_67L_, Q9UKT9]	1.08
FVCDVCGAGFTQKGNLLRHIKL [46F_47V_49D_50V_52G_53A_54G_55F_67L_, Q9UKT9]	-0.11
FMCEICGANFTQKGNLLRHIKL [46F_47M_49E_50I_52G_53A_54N_55F_67L_, Q9UKT9]	2.76
FCCEQCGAQFTQKGNLLRHIKL [46F_47C_49E_50Q_52G_53A_54Q_55F_67L_, Q9UKT9]	0.54
FCCEVCGASFTQKGNLLRHIKL [46F_47C_49E_50V_52G_53A_54S_55F_67L_, Q9UKT9]	2.25
FICPVCGAYFTQKGNLLRHIKL [46F_47I_49P_50V_52G_53A_54Y_55F_67L_, Q9UKT9]	1.98
LMCEICGFFCTQKGNLLRHIKL [46L_47M_49E_50I_52G_53F_54F_55C_67L_, Q9UKT9]	1.75
FFCDICGATFTQKGNLLRHIKL [46F_47F_49D_50I_52G_53A_54T_55F_67L_, Q9UKT9]	0.337
FSCNICGASFTQKGNLLRHIKL [46F_47S_49N_50I_52G_53A_54S_55F_67L_, Q9UKT9]	1.15
FKCNQCGHPFTQKGNLLRHIKL [46F_47K_49N_50Q_52G_53H_54P_55F_67L_, Q9UKT9]	-2.72
LICPICGFQCTQKGNLLRHIKL [46L_47I_49P_50I_52G_53F_54Q_55C_67L_, Q9UKT9]	2.11

Hello, the source for this data is the supplement of paper PMC12645437, in case you need it.
